TARGET_SYSTEM: Sko1 (UniProt Q02100)
Sequence: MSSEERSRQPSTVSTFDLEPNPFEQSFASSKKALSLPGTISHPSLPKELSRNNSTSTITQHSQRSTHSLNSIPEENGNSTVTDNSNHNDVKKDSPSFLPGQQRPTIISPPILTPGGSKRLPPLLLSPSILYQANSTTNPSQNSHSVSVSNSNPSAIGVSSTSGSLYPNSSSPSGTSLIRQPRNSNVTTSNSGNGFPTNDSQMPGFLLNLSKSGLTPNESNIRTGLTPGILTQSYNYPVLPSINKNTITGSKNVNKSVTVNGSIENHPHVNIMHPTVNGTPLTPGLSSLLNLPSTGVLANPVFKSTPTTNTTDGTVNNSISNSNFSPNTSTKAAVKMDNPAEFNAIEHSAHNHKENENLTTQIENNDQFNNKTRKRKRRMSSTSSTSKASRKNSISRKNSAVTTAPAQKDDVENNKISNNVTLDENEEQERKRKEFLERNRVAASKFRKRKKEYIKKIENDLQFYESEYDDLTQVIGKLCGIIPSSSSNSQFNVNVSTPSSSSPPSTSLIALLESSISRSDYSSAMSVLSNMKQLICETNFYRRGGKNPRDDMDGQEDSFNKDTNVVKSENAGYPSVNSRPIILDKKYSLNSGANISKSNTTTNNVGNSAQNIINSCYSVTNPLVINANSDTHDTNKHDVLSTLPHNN
METHOD_DESCRIPTION: PBM E-score (8-mer binding enrichment) (E-score (-0.5 to 0.5)); higher = stronger / more preferred TF binding
TEST_CONTEXT: protein concentration: 200 nM; construct: GST-full length
Whole data set: some 33,000 sequences, median “E-score (-0.5 to 0.5)” near -0.032, cut for the highest 2% near 0.36. Only a selection was taken, and the highest values are over-represented in it overall.
Each entry below carries its reported PBM E-score.

INSERT INTO results (sequence_entry, value_kind, data_value) VALUES
  ('CGTGATGA', 'PBM E-score', 0.36),
  ('AGGTAAGG', 'PBM E-score', -0.0698),
  ('ACCCCATG', 'PBM E-score', -0.0741),
  ('CGTCAAAA', 'PBM E-score', 0.36),
  ('GGTCAGAC', 'PBM E-score', -0.241);

// recorded PBM E-score for `CGTCAGAC` : 0.394

Value of measured PBM E-score for the entry `GGTGATGA` : 0.18

# PBM E-score (sequence: `CGTGACGA` ) is 0.411

Recorded result, `CTGTTAGA` , PBM E-score: -0.0627

Record `CGTCAAAC` , field PBM E-score: 0.253

# PBM E-score of `CGTGACGC` = 0.422

Reported PBM E-score ( `GGTCAAAA` ) = 0.096

For `GTGTAAGA` the sequence record lists PBM E-score as 0.0148

// PBM E-score lookup, sequence = `CGTGACCA` , result: -0.0216

PBM E-score measured on `GGTCAGAA` = -0.206

What the record says about `AGTGATGA` : PBM E-score is 0.21

---

Here, each record is paired with measured PBM E-score data.
TARGET_SYSTEM: Sko1 (UniProt Q02100)
Sequence: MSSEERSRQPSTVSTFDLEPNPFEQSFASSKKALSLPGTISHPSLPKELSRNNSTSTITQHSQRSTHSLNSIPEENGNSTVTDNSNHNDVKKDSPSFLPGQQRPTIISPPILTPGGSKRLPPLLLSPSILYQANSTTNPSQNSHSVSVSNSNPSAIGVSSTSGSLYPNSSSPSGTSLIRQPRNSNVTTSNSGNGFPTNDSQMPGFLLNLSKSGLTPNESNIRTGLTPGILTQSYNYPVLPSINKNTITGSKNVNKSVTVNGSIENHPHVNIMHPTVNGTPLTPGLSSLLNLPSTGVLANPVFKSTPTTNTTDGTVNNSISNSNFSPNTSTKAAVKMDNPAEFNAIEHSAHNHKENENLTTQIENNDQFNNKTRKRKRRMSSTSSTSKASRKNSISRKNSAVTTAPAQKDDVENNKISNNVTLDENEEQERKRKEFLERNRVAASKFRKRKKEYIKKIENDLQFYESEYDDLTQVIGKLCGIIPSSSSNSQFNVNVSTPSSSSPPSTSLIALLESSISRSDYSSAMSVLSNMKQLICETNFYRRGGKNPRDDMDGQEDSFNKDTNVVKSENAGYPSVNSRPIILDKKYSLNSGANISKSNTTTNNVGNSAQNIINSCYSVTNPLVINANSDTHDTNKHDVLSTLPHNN
METHOD_DESCRIPTION: PBM E-score (8-mer binding enrichment) (E-score (-0.5 to 0.5)); higher = stronger / more preferred TF binding
TEST_CONTEXT: protein concentration: 200 nM; construct: GST-full length
In all, about 33,000 sequences were measured (“E-score (-0.5 to 0.5)”: median about -0.032, highest 2% from about 0.36 on). Shown is part of a subset that was picked to be rich in the highest values.
// return just the number, without any unit appended

Some entries whose results are on file:
INSERT INTO results (sequence_entry, value_kind, data_value) VALUES
  ('CCGCCCTC', 'PBM E-score', -0.23),
  ('TCTACTAA', 'PBM E-score', 0.0947),
  ('ATATGACC', 'PBM E-score', 0.00457);

Summary for this sequence, `CCATGACG` : PBM E-score is 0.475

So, `ACATGACG` ? Its PBM E-score was 0.474

Briefly, PBM E-score measured for `CTGCTACA` : -0.0447

So for `GGTAGCCA` , the logged PBM E-score turned out to be -0.238

What the record says about `CCGTATAA` : PBM E-score is 0.0514

Entry under test: `ACGTATAT` . Its PBM E-score was 0.453

Please fill in: PBM E-score reported for `CCGTATAC` = 0.0259

// `ATATGACG` : PBM E-score value = 0.477
